assayed_system: EGFR (Homo sapiens, UniProt P00533)
Construct: Add 7 ug A431 cell lysate per well (EGFR source); endogenous in cells; host or cells: A431
Sequence (P00533 25-1210): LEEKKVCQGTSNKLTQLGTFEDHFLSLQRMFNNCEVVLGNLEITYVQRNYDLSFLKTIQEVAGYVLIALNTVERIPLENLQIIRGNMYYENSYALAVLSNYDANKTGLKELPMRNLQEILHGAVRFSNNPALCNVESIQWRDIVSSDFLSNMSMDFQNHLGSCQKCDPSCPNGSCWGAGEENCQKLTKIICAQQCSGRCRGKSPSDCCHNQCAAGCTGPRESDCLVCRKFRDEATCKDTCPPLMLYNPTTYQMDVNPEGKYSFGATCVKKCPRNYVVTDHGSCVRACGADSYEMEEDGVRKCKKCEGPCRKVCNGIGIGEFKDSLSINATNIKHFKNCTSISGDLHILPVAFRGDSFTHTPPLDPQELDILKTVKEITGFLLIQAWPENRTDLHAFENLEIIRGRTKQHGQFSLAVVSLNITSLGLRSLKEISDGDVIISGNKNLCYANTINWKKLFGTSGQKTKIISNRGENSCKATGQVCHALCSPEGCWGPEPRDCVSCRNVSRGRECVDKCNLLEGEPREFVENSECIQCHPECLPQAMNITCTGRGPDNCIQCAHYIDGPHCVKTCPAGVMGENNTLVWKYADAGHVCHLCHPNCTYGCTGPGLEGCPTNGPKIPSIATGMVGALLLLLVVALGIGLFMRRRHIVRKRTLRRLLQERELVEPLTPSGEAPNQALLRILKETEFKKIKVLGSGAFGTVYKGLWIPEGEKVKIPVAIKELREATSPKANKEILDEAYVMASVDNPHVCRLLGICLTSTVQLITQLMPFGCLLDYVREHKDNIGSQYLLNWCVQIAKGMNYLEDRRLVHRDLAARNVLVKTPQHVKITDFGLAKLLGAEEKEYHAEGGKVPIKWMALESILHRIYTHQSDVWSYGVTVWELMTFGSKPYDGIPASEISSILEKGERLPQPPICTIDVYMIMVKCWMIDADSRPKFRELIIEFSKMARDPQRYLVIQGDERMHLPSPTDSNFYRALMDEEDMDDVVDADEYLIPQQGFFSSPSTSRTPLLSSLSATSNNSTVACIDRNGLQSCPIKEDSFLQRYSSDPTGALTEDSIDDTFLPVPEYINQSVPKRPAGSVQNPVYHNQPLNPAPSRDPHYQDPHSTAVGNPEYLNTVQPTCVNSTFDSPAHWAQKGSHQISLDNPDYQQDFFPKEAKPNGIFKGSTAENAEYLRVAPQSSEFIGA
test_description: EGFR ELISA assay (in vitro kinase activity, EGFR captured from A431 cell lysate)
Assay type: biochemical
Design: concentration or dose not given beside the values
Biochem EGFR %Inhibition for assorted molecules
State just the number; it will be interpreted in %.

Some molecules with recorded Biochem EGFR %Inhibition:
* CNS(=O)(=O)c1ccc2c(c1)C(=Cc1ccc(Cl)c([N+](=O)[O-])c1)C(=O)N2 | 3.0
* CCN(CC)c1ccc(C=C2C(=O)Nc3ccc(I)cc32)cc1 | -18.4
* CCOc1cc(C=C2C(=O)Nc3c(Br)cc(Br)cc32)ccc1O | 8.6
* COc1cccc(C=C2C(=O)Nc3ccc(CCCl)cc32)c1O | 18.5
* CSc1ccc(C=C2C(=O)Nc3ccc(S(=O)(=O)Nc4ccc(C(F)(F)F)cc4)cc32)s1 | 55.1
* Cc1c(Br)ccc2c1C(=Cc1cc(C(C)(C)C)c(OCc3ccccc3)c(C(C)(C)C)c1)C(=O)N2 | 17.2
* CCOC(=O)c1cc(C=C2C(=O)Nc3ccc(S(=O)(=O)N4CCOCC4)cc32)oc1C | -9.1

Data request: Can you look up the measured Biochem EGFR %Inhibition of Cc1cc2occ(C=C3C(=O)Nc4c(Br)cc(Br)cc43)c(=O)c2cc1C for me?
Data returned: 10.8

----------
assayed_system: EGFR (Homo sapiens)
Construct: Add 7 ug A431 cell lysate per well (EGFR source); endogenous in cells; host or cells: A431
test_description: EGFR ELISA assay (in vitro kinase activity, EGFR captured from A431 cell lysate)
Type: biochemical
Design: concentration or dose not given beside the values
Short version: Biochem EGFR %Inhibition at least 10% is satisfied, less is not satisfied.

Use the examples below as a reference point.
* COc1ccc2ccccc2c1C=C1C(=O)Nc2ccc(S(=O)(=O)Nc3ccc(C(F)(F)F)cc3)cc21 | not satisfied
* O=C1Nc2ccc(CCCl)cc2C1=Cc1ccc(Br)s1 | not satisfied
* O=C1Nc2ccc(S(=O)(=O)N3CCOCC3)cc2C1=Cc1ccc2ccccc2c1O | not satisfied
* COc1c(C(C)C)cc(C=C2C(=O)Nc3ccc(S(=O)(=O)Nc4ccc(C(F)(F)F)cc4)cc32)cc1C(C)C | not satisfied

Data request: Please indicate if the recorded Biochem EGFR %Inhibition for CSc1ccc(C=C2C(=O)Nc3c(Br)cc(Br)cc32)s1 meets or exceeds 10%.
Data returned: satisfied

Data request: Please indicate if the recorded Biochem EGFR %Inhibition for CCc1cc(CC)c(C=C2C(=O)Nc3ccc(CCCl)cc32)[nH]1 meets or exceeds 10%.
Data returned: satisfied

Data request: Please indicate if the recorded Biochem EGFR %Inhibition for COc1c([N+](=O)[O-])cc(C=C2C(=O)Nc3ccc(Br)c(C)c32)cc1C(C)(C)C meets or exceeds 10%.
Data returned: satisfied

Data request: Please indicate if the recorded Biochem EGFR %Inhibition for O=C1Nc2ccc(I)cc2C1=Cc1coc2ccc([N+](=O)[O-])cc2c1=O meets or exceeds 10%.
Data returned: satisfied

----------
assayed_system: FLK-1 receptor (Mus musculus, UniProt P35918)
Construct: expressed in transfected cells; host or cells: NIH3T3 C7#3
Sequence (P35918 20-1345): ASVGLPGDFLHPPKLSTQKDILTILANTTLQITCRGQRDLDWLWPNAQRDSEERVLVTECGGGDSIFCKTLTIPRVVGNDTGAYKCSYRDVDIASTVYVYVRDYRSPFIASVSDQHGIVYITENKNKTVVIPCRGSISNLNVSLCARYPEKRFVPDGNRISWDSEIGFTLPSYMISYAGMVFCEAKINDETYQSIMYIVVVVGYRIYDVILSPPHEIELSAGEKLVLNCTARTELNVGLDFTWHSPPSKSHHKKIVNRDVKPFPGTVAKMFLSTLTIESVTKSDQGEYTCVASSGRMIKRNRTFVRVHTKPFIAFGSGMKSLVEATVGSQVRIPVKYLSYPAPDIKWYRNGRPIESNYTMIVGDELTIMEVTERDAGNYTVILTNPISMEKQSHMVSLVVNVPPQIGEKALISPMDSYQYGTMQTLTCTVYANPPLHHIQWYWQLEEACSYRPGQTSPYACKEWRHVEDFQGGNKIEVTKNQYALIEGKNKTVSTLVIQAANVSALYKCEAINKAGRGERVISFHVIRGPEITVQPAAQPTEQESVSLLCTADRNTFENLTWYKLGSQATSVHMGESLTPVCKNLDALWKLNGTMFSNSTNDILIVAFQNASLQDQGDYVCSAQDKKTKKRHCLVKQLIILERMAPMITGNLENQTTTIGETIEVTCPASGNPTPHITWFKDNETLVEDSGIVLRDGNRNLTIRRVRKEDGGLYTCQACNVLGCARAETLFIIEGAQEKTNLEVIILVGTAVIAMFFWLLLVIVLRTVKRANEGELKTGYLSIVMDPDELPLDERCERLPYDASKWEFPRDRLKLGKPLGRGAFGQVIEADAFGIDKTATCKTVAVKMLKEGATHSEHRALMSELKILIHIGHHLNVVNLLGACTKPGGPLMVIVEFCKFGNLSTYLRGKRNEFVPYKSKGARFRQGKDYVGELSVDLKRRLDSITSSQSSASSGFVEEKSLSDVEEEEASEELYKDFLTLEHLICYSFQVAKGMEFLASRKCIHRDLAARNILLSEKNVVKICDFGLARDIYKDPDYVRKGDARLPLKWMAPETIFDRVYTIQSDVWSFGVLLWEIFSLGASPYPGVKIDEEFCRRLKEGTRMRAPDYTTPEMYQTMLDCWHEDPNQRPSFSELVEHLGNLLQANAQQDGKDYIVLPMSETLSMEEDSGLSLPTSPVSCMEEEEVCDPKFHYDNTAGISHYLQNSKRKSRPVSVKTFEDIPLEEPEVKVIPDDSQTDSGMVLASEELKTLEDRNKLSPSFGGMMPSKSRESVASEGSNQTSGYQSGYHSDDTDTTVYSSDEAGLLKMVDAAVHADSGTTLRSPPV
test_description: FLK-1 ELISA (kinase activity of the FLK-1 receptor in FLK-1/NIH3T3 cells, VEGF stimulated)
Format: cell-based
Protocol: An enzyme linked immunosorbent assay (ELISA) was conducted to measure the catalytic activity of the FLK-1 receptor and more specifically, the inhibition or activation of indolinone compounds on the catalytic activity of the FLK-1 receptor. Specifically, the following assay was conducted to measure catalytic activity of the FLK-1 receptor in FLK-1/NIH3T3 cells. […]
# yes (1) = Fik Kinase %Inhibition below 10% (exclusive); no (0) = Fik Kinase %Inhibition at/above 10%

Use the examples below as a reference point.
• COc1cc(C=C2C(=O)Nc3c(Br)cc(Br)cc32)cc2c1OCO2 [10728/A11] = yes (1)
• O=C1Nc2ccc(I)cc2C1=Cc1cc(Cl)cc(Br)c1O [10727/B04] = no (0)

# input for lookup
Data request: Consider the molecule COc1cc(Br)cc(C=C2C(=O)Nc3ccc(S(=O)(=O)Nc4ccc(C(F)(F)F)cc4)cc32)c1O [10733/E08] . Is its Fik Kinase %Inhibition strictly less than 10%?
Data returned: yes (1)
